Ref: the supplement of paper PMC9170038

Test system: MS2 coat protein
assay-remarks: apparent KD of MS2 coat protein; designed switch direction (-1 OFF switch, 1 ON switch): -1; higher = weaker reporter binding
measurement-conditions: input ligand: FMN 200 uM
assay-endpoint: apparent KD of MS2 coat protein (nM)
Please state the figure in nM; there is no need to write the unit.

Using the record for CUGAGCUGAGGAUAUACAUGAGGAUCACCCAUGUUAAGCAGCUAGUGAAGAAGUAGAUGUAGAAGGCAGUUCGG [Mod of JL 21 - Jieux - Exclusion 3] (Eterna round: R97, puzzle: Exclusion 3) , state its measured apparent KD of MS2 coat protein.
75.2

Using the record for UACAUGAGGAUCACCCAUGUUUUGUCGUGUAUGGUAUUUAUCUAGGAUAUCAAUUUAUUUAAUUAUGAGAAGGAGAAUAUUAAU [JMF's solution 21] (Eterna round: R96, puzzle: Exclusion NG 3) , state its measured apparent KD of MS2 coat protein.
36.3

====

Test system: MS2 coat protein
assay-remarks: apparent KD of MS2 coat protein; designed switch direction (-1 OFF switch, 1 ON switch): -1; higher = weaker reporter binding
measurement-conditions: input ligand: none
Please go through the items and note down their apparent KD of MS2 coat protein.
Please state the figure in nM; there is no need to write the unit.

// fetch apparent KD of MS2 coat protein for AGGAGGAGUUCAGGAUAUUCGACAUGAGGAUCACCCAUGUGGGUAAUAUAUAGUAAAGAGAUAGAGAAGAAGGGAAGGGAGGAG [Exclusion NG2] (Eterna round: R96, puzzle: Exclusion NG 2) ; system: MS2 coat protein
36

// fetch apparent KD of MS2 coat protein for ACAUGAGGAUCACCCAUGUCUGGCUGGUCCGCUCCGGCUGUUGAGGAUAUAGCUCGGUGUCCGCGCUAGAAGGUGAGGGCCGGC [Aenatbe mod 33] (Eterna round: R96, puzzle: Exclusion NG 3) ; system: MS2 coat protein
25.1

// fetch apparent KD of MS2 coat protein for AUGUGCUGCUAAGGAUAUGUGAACUGUUUCCGAAUAGAAGGUAGCUAUACAUGAGGAUCACCCAUGUACGUGAACCGAGUAAAA [Eternabot solution 20] (Eterna round: R96, puzzle: Exclusion NG 1) ; system: MS2 coat protein
24.6

====

Tested on: MS2 coat protein
assay-remarks: apparent KD of MS2 coat protein; designed switch direction (-1 OFF switch, 1 ON switch): 1; higher = weaker reporter binding
measurement-conditions: input ligand: none
Threshold check on apparent KD of MS2 coat protein: at or above 500 nM gives Criterion met, strictly below gives Criterion not met.

apparent KD of MS2 coat protein >= 500 nM for CCAACGUACAAUUUAGAUCUACAUGAGGAUCACCCAUGUACGGAGGAUAUCAGCUCGUGUAGAGCUGAGAAGGCCGAAUUAAUU [SSNG3/2-A4] (Eterna round: R96, puzzle: Same State NG 3) ?
Criterion not met

apparent KD of MS2 coat protein >= 500 nM for UAAUUAAGUCAAGGAUAUCACGUCGAUUAGACGUGAGAAGGUGAUUAAUACAUGAGGAUCACCCAUGUAAUACAUGAAUAAUUA [SSNG1/11-B2] (Eterna round: R96, puzzle: Same State NG 1) ?
Criterion not met

apparent KD of MS2 coat protein >= 500 nM for AUGCCAAAUCAAGGAUAUGGAGCCUUAUUGGCUCCAGAAGGUGGGACAUGAGGAUCACCCAUGUGGCAGUGGUCUAAUGACCAC [Fiskers NG1ss - 31] (Eterna round: R96, puzzle: Same State NG 1) ?
Criterion not met

apparent KD of MS2 coat protein >= 500 nM for GCUCGUAUGAUGACCGACAUGAGGAUCACCCAUGUGUGUUGGUAGGAUAUCUAUAUUAAGGAUAUAGAGAAGGGCCGAACGAGC [SameState NG3 #16] (Eterna round: R96, puzzle: Same State NG 3) ?
Criterion not met

apparent KD of MS2 coat protein >= 500 nM for UGGCUCAGACGAGGAUAUACGUGGUCACAUGAGGAUCACCCAUGUCUCGAGCUUCGGCUCGAGGCGUAGAAGGUGUCUGAGCCA [SSNG2/6-C2] (Eterna round: R96, puzzle: Same State NG 2) ?
Criterion met

apparent KD of MS2 coat protein >= 500 nM for UUAAUAAUGUAAGGAUAUACAUGAGGAUUUCUCGUAGAAGGUACAGGACAUGAGGAUCACCCAUGUAUCGCUCGAAAGAGCGUA [Mat - Same State NG 1 - JL mod - D25] (Eterna round: R96, puzzle: Same State NG 1) ?
Criterion met

apparent KD of MS2 coat protein >= 500 nM for AGUCCAGCCUGAGCUGGACAAAAGCAUGUACAUGAGGAUCACCCAUGUCAUGUACAAGCUUUUUGCUCAUCUUAAAA [Mat - hsa-mir-208a - Mod of JL - D11] (Eterna round: R96, puzzle: Sensor for hsa-mir-208a) ?
Criterion met

apparent KD of MS2 coat protein >= 500 nM for GGAGAGAAGUGAGGAUAUGCAUGGAAGACACAUGAGGAUCACCCAUGUGGGAGGGAAACCGGGAGGUAGAAGGCACUGGGAAGA [AK SSNG2-V2-25] (Eterna round: R96, puzzle: Same State NG 2) ?
Criterion not met

apparent KD of MS2 coat protein >= 500 nM for GCGAGCGUACUUGCAACAUGAGGAUCACCCAUGUUAACUGGACAGGAUAUGGUACCGUUUCGGUACCAGAAGGGUUUUUCAUGG [JL SSNG3 3.64] (Eterna round: R96, puzzle: Same State NG 3) ?
Criterion not met

====

Test system: MS2 coat protein
assay-remarks: apparent KD of MS2 coat protein; designed switch direction (-1 OFF switch, 1 ON switch): -1; higher = weaker reporter binding
measurement-conditions: Eterna round: R95; input ligand: microRNA oligo, concentration not stated
Threshold check on apparent KD of MS2 coat protein: at or above 60 nM gives class 1, strictly below gives class 0.

apparent KD of MS2 coat protein >= 60 nM for AGGGAUAAAGGAUAUACAUGAGGAUCACCCAUGUUGAGGAAAGUGAGAGGUGGCGAUAGUAGAAGGUUAGGUGG [JR_Exclu3_Sub083] (puzzle: Exclusion 3) ?
class 1

apparent KD of MS2 coat protein >= 60 nM for GGUUGACAUGAGGAUCACCCAUGUGAGGAUAUGCGAGAGAAAAAAGUGAGGAAGAAUAGCAGAAGGCGCUGUCG [salish99-ex1_r3_011] (puzzle: Exclusion 1) ?
class 0

apparent KD of MS2 coat protein >= 60 nM for CGGACCCGAGGAUAUCGUAAACCCGACAUGAGGAUCACCCAUGUCAUCCUCACGGCGCCACGAGAAGGCGGUGUUA [Ansolaedra] (puzzle: Exclusion 5) ?
class 0

apparent KD of MS2 coat protein >= 60 nM for AGUACUAACACGCGAGUGUUAGUACAAUAAGCUUGUGAAACAUGAGGAUCACCCAUGUCCUCAUAAGCUCGUCUUAU [salish99_TOv2_r3_059] (puzzle: Sensor v3, turn-off variant 2) ?
class 1

apparent KD of MS2 coat protein >= 60 nM for UUAAGCUUUGAGAUCCUUAACAUGAGGAUCACCCAUGUUCGUCUUAUGAUGGUCUGAUCCCUGAGGAUCGGACCGUU [Mat - Sensor v3 - turn-off var 1 - JL Mod - D3] (puzzle: Sensor v3, turn-off variant 1) ?
class 0

apparent KD of MS2 coat protein >= 60 nM for GAGAAGUGAGGAUAUGCGGUAAGGAUGAAAGGAAGGAAUGAGUAGAAGGCACAUGAGGAUCACCCAUGUAGAGU [JR_Exclu4_Sub081] (puzzle: Exclusion 4) ?
class 0

apparent KD of MS2 coat protein >= 60 nM for AGGUAACAUGAGGAUCACCCAUGUCAGGAUAUCAUGAAGAGGAGAUUAGAGGAGAGGUUGAGAAGGGACUAUAU [Excluse me! 14 - Jieux - Exclusion 1] (puzzle: Exclusion 1) ?
class 0

apparent KD of MS2 coat protein >= 60 nM for CCUCCACAUGAGGAUCACCCAUGUCAGGAUAUCGUGUGCGCGUUUUCGGUCUUUCGUGCGAGAAGGGACGUCUG (puzzle: Exclusion 1) ?
class 0

apparent KD of MS2 coat protein >= 60 nM for UAAAAGGUAGGAUAUACGAAAAAAAAGGGUAGAAAAAAAACACAUGAGGAUCACCCAUGUAGAAGGACCAAAAU [salish99_ex2_r3_041] (puzzle: Exclusion 2) ?
class 0

apparent KD of MS2 coat protein >= 60 nM for AGUUCUAACACGUUGGUGUUAGUACCAUAAGCUUGUGAUACAUGAGGAUCACCCAUGUCCUCAUAAGCUCGUCUUAU [salish99_TOv2_r3_1001] (puzzle: Sensor v3, turn-off variant 2) ?
class 1

====

Please go through the items and note down their apparent KD of MS2 coat protein.
Test system: MS2 coat protein
assay-remarks: apparent KD of MS2 coat protein; higher = weaker reporter binding
measurement-conditions: Eterna round: R107; input ligand: theophylline 2 mM
Please state the figure in nM; there is no need to write the unit.

Using the record for ACACGUGAGGAUCAUCCAUGUGCCCAUGAAGGAGCGUGGGAAACCACAGGUAGGUCGCAUGACAUGAGGAUCACCCAUGUUUAUU [#04 Exclusion - Arginine A] , state its measured apparent KD of MS2 coat protein.
105

Using the record for AGAUUCGACACGGCCGCCACUCGUGGAGGAUUACCGAGUGUCGAACAUGAGGAUCACCCAUGUACGAGGACCGGGUGUUGAGUCU [XTryp B #15] , state its measured apparent KD of MS2 coat protein.
28.5

Using the record for CAUGCGGCUAGUGAGCGUGGUGAGUAAAGGCGAGGACCGGUACGGCCGCCACUCGAGGCAAGACAUGAGGAUCACCCAUGUUGUA [theeternabot_exclusion_MS2_Trp_A_27] , state its measured apparent KD of MS2 coat protein.
15.9
